- EXPERIMENT_NOTES: reduction of polyQ htt aggregates in cells – imaging, exon1htt(103Q)mCFP cells, high-content imaging, primary screen (AID 483);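 note: compound exposure lasted 3 days before fixation; percent of the per-plate median nuclei count of sample wells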
- PROTOCOL_CONDITIONS: exon1htt(103Q)mCFP cell line, aggregate imaging, at 2 µM; measured here: cell count, toxicity
EXPERIMENTAL_READOUT: nuclei count

Record excerpt, results attached:
What value of nuclei count has been reported for the following compound? `Nc1nc(SCc2ccc(Cl)cc2Cl)n[nH]1`
97.6%

What value of nuclei count has been reported for the following compound? `O=C(NCCCN1CCOCC1)c1cc(-c2ccc(O)cc2)on1`
92.4%

What value of nuclei count has been reported for the following compound? COc1ccc(C2C(C#N)=C(N)Oc3cc4c(cc32)OCO4)cc1 (stereo not given)
105%

What value of nuclei count has been reported for the following compound? `C/C(Nc1cccc(F)c1)=C(/C#N)C(N)=O`
104%

***
What value of nuclei count has been reported for the following compound? `Cc1cc(C)n(-c2cc(N3CCOCC3)nc(-c3ccccc3)n2)n1`
105%

What value of nuclei count has been reported for the following compound? `Cc1nnc(C)c2c(C)n(Cc3ccc4c(c3)OCO4)c(C)c12`
74.3%

What value of nuclei count has been reported for the following compound? O=C(NCc1cccs1)C1CC(=O)N(c2ccccc2)C1 (stereo not given)
98.2%
